# system.tested: Tubulin
# protocol.summary: Inhibition of tubulin (unknown origin) assembly after 20 mins by turbidimetric analysis
# key: entry, value: IC50
property.measured: IC50 (µM)

{"smiles.text": "COc1cccc(-c2noc(Nc3ccc(C)cc3)n2)c1OC", "property.measured": "IC50", "result.number": 3.6}
{"smiles.text": "COc1ccc(Nc2nc(-c3cccc(OC)c3OC)no2)cc1", "property.measured": "IC50", "result.number": 2.6}
{"smiles.text": "COc1ccc(Nc2nc(-c3cccc(OC)c3)no2)cc1", "property.measured": "IC50", "result.number": 1.9}
{"smiles.text": "COc1ccc(Nc2nc(-c3ccccc3F)no2)cc1", "property.measured": "IC50", "result.number": 1.1}
{"smiles.text": "COc1cccc(-c2noc(Nc3ccc4c(c3)OCO4)n2)c1", "property.measured": "IC50", "result.number": 2.2}
{"smiles.text": "COc1ccc(OC)c(-c2noc(Nc3ccc(C)c(F)c3)n2)c1", "property.measured": "IC50", "result.number": 3.5}
{"smiles.text": "CCOc1ccc(Nc2nc(-c3ccccc3)no2)cc1", "property.measured": "IC50", "result.number": 1.2}
{"smiles.text": "CCOc1ccc(Nc2nc(-c3ccccc3F)no2)cc1", "property.measured": "IC50", "result.number": 1.7}
{"smiles.text": "CCOc1ccc(Nc2nc(-c3cccc(OC)c3OC)no2)cc1", "property.measured": "IC50", "result.number": 1.8}
{"smiles.text": "COc1cccc(-c2noc(Nc3ccc(OC)c(Cl)c3)n2)c1", "property.measured": "IC50", "result.number": 2.3}
{"smiles.text": "Cc1ccc(Nc2nc(-c3ccccc3F)no2)cc1F", "property.measured": "IC50", "result.number": 1.6}
{"smiles.text": "Cc1ccc(Nc2nc(-c3ccccc3)no2)cc1", "property.measured": "IC50", "result.number": 1.4}
{"smiles.text": "COc1ccc(OC)c(-c2noc(Nc3ccc4c(c3)OCO4)n2)c1", "property.measured": "IC50", "result.number": 2.5}
{"smiles.text": "COc1cccc(-c2noc(Nc3ccc(C)cc3)n2)c1", "property.measured": "IC50", "result.number": 1.5}
{"smiles.text": "COc1ccc(OC)c(-c2noc(Nc3ccc4c(c3)OCCO4)n2)c1", "property.measured": "IC50", "result.number": 3.5}
{"smiles.text": "CCc1ccc(Nc2nc(-c3ccccc3F)no2)cc1", "property.measured": "IC50", "result.number": 2.7}
